Assign half-life at 2000 µM to each entry below.
# Measurement description: Half life in RPMI/FBS cell culture media 9:1 (v/v) at 2 mM by HPLC analysis
# Format: physicochemical
# Condition: cattle

Looking up "CCCCCCCCCc1ccc(OP(=O)(O)OC[C@H]2O[C@@H](n3cc(F)c(=O)[nH]c3=O)C[C@@H]2OC(=O)c2ccccc2)cc1" , I see its half-life at 2000 µM listed as > 120 h

Looking up "O=c1[nH]c(=O)n([C@H]2C[C@H](O)[C@@H](COP(=O)(O)Oc3cccnc3)O2)cc1F" , I see its half-life at 2000 µM listed as 16.7 h

Looking up "O=C(O[C@H]1C[C@H](n2cc(F)c(=O)[nH]c2=O)O[C@@H]1COP(=O)([O-])Oc1ccc[n+](Cc2ccccc2)c1)c1ccccc1" , I see its half-life at 2000 µM listed as 10.8 h

Looking up "C[N+](C)(C)CCOP(=O)([O-])OC[C@H]1O[C@@H](n2cc(F)c(=O)[nH]c2=O)C[C@@H]1OC(=O)c1ccccc1" , I see its half-life at 2000 µM listed as 20 h
